Target: EGFR on EGFR positive non-small cell lung cancer cells NCI-H1650 (UniProt P00533 25-1210)
Experiment: cell-based or functional assay
H1650 CTG-3D EC50: recorded values
The figure you give is taken to be in µg/mL; do not add the unit.

AbB-ZZ (antibody, human IgG1, kappa, V domains shown, synthon ZZ on reduced interchain cysteines; average DAR 1.1 per ADC) VH: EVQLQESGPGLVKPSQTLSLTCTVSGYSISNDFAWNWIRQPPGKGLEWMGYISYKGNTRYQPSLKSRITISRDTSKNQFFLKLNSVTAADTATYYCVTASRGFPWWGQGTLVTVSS VL: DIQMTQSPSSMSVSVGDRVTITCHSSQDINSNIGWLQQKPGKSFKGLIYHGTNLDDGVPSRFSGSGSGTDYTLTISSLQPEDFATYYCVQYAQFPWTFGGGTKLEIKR: 0.52

The reported H1650 CTG-3D EC50 of the binder AbB-KZ (antibody, human IgG1, kappa, V domains shown, synthon KZ on reduced interchain cysteines; average DAR 1.9 per ADC) VH: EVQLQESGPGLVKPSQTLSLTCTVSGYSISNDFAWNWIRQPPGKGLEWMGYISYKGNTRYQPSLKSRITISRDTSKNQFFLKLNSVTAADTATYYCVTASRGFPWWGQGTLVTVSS VL: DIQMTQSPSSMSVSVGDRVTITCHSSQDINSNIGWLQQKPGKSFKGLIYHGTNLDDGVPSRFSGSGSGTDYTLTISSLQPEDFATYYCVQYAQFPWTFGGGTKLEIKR was 16.5

AbA-AAD (antibody, human IgG1, kappa, V domains shown, synthon AAD on reduced interchain cysteines; average DAR 3.3 per ADC) VH: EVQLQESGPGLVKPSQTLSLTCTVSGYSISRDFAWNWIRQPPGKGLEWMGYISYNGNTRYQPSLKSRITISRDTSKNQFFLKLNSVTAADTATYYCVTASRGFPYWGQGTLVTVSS VL: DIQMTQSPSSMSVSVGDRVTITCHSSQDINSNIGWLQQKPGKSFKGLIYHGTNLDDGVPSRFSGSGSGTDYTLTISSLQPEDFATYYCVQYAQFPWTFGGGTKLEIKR has a reported H1650 CTG-3D EC50 of 0.79
